Sourced from the supplement of paper PMC9170038

Catalogue of apparent KD of K4 kissing-loop reporter values
System: K4 kissing-loop RNA reporter;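 further: bound reporter read as fluorescence of individual clusters on recovered sequencing chips by microscopy, with normalized cluster intensities fitted with a binding model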
Assay info: apparent KD of K4 kissing-loop reporter; higher = weaker reporter binding
Particulars: Eterna round: R107; input ligand: theophylline 20 uM

Chain sequence	apparent KD of K4 kissing-loop reporter, nM
UUCUUGAUGGAAACAUCGAGGAUCACUGAUACCAGUAUCGAUAGAUACCCUUGGCAGCAGUGUCGGUGGUCACGAGUGAUGUUCG [Ex Theophylline A K4 12]	719
AUGAGGUGACUAAAUAAUAAGGGAAUUGAUACCAGACAGAAUUCUGUCCCUUGGCAGCAGUGAUGUUGUUGCAAGUCAGCUCAAA [AK1.1 Exc Theophylline A]	198
AUAUGCAGGAGAAGGAGCGUCGUUUCAAGUGAUGUUUGCAAGCGAGCUUACUAUAUAAGACGACAGGUAGGUCGCUCCUGCGUAA [#06 K4 Arginine B Exclusion]	141
AGCAGCAAAUCCUAGUGAUGUUAGGAUAUGUAGGAUAUCGGGAUACCGAGAAGGACAGAAGGAGGAGUGAUGUUCCUAAGCUGCA [FmnAX 24 #DoubleAptamer #DoubleK4 #SwitchBubble]	122
GAUUCUAGCGAAAGUGAUGUUUUCGAGGAUACCAGUGCCACUUGACACCCUUGGCAGCCUACCCGUCAUCACAAGUGGCGUUAAA [theeternabot_exclusion_KL_Theo_A_28]	138
